# Tested target: Human whole blood Cox-1 (Homo sapiens)
# Sequence (P23219 24-599): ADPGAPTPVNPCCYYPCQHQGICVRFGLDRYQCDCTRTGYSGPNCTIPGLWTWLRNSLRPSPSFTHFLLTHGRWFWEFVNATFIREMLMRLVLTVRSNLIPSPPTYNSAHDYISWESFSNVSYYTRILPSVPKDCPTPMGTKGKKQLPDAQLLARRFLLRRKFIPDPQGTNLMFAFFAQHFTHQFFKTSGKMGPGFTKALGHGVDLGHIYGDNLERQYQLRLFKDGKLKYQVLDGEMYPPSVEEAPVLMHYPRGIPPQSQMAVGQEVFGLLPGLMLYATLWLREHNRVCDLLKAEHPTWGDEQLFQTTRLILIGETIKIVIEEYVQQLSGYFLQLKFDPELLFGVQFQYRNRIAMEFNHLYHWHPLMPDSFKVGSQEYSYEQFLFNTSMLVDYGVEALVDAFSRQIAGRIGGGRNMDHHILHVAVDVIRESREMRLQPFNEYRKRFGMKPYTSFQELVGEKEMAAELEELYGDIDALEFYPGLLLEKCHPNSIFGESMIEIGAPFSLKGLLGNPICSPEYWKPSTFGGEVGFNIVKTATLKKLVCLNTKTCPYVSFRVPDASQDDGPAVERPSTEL
# Method: Human whole blood assay Cyclooxygenase-1
Measure name: IC50 (µM)
Answer format: numeric, µM implied, no suffix.

For reference, reported IC50 for CC(C)(O)CCOc1c(-c2ccc(S(C)(=O)=O)cc2)cnn(-c2ccc(F)cc2)c1=O [Example 451] stands at 29.1

----------
Here the recorded melting point is given for each entry.

Take a look at these entries with their results.
# Compound, melting point
rows = [
    ("CC(C)(O)CCOc1c(-c2ccc(S(N)(=O)=O)cc2)cnn(-c2ccc(F)c(F)c2)c1=O", "181 °C"),
    ("CS(=O)(=O)c1ccc(-c2cnn(Cc3ncc(Cl)s3)c(=O)c2-c2ccc(F)cc2)cc1", "185 to 186 °C"),
    ("CS(=O)(=O)c1ccc(-c2cnn(Cc3cccnc3)c(=O)c2-c2ccc(F)cc2)cc1", "160 to 161 °C"),
    ("CS(=O)(=O)c1ccc(-c2cnn(C=C(F)C(F)(F)C(F)(F)F)c(=O)c2-c2ccc(F)cc2)cc1", "167 to 169 °C"),
    ("CC(C)(O)COc1c(-c2ccc(S(N)(=O)=O)cc2)cnn(-c2ccc(F)c(Cl)c2)c1=O", "176 to 178 °C"),
    ("CC(C)CCC(C)Oc1c(-c2ccc(S(C)(=O)=O)cc2)cnn(-c2ccc(F)cc2)c1=O (centres unmarked)", "102 to 103 °C"),
]

For reference, reported melting point for `CS(=O)(=O)c1ccc(-c2cnn(-c3ccc(Cl)s3)c(=O)c2-c2ccc(Cl)cc2)cc1` stands at 249 to 251 °C

For reference, reported melting point for `CS(=O)(=O)c1ccc(-c2cnn(Cc3ccc4cc(F)ccc4n3)c(=O)c2-c2ccc(F)cc2)cc1` stands at 116 to 119 °C

----------
Here the recorded inhibition in vivo at 3 mg/kg is given for each entry.
# Test system: air pouch prostaglandin biosynthesis (Cox-2)
# Method: Carrageenan induced air pouch prostaglandin biosynthesis model (CAP)
# Assay type: in vivo, rat
# Measurement context: 4 h; 3 mpk, rat; read-out: CAP % Inhib. @ 3 mpk
Answer format: numeric, % implied, no suffix.

Take a look at these entries with their results.
# Compound smiles, Tested target, Readout number
data = [
    ("CC(C)CCOc1c(-c2ccc(S(C)(=O)=O)cc2)cnn(-c2ccc(F)c(F)c2)c1=O", "air pouch prostaglandin biosynthesis (Cox-2)", 66.5),
    ("CC(C)(O)COc1c(-c2ccc(S(N)(=O)=O)cc2)cnn(-c2ccc(F)cc2)c1=O", "air pouch prostaglandin biosynthesis (Cox-2)", 75),
]

For reference, reported inhibition in vivo at 3 mg/kg for `CC(C)COc1c(-c2ccc(S(C)(=O)=O)cc2)cnn(-c2cccc(Cl)c2)c1=O` stands at 45

For reference, reported inhibition in vivo at 3 mg/kg for `NS(=O)(=O)c1ccc(-c2cnn(CC=C(Cl)Cl)c(=O)c2-c2ccc(F)cc2)cc1` stands at 76

For reference, reported inhibition in vivo at 3 mg/kg for `CC(C)CCc1c(-c2ccc(S(C)(=O)=O)cc2)cnn(-c2cccc(Cl)c2)c1=O` stands at 63

For reference, reported inhibition in vivo at 3 mg/kg for `CC(C)CCc1c(-c2ccc(S(N)(=O)=O)cc2)cnn(-c2cccc(Cl)c2)c1=O` stands at 60

For reference, reported inhibition in vivo at 3 mg/kg for `CS(=O)(=O)c1ccc(-c2cnn(-c3ccc(F)c(F)c3)c(=O)c2-c2ccc(F)cc2)cc1` stands at 98

For reference, reported inhibition in vivo at 3 mg/kg for `CC(C)(C)COc1c(-c2ccc(S(N)(=O)=O)cc2)cnn(CC(F)(F)F)c1=O` stands at 92

----------
# Tested target: recombinant human Cox-2 (r-hu Cox-2) (Homo sapiens)
# Construct: made in house; host or cells: baculovirus/Sf9 insect cells (microsomes)
# Method: Recombinant human PGHS-2 enzyme assay (RHUCX2)
# Assay type: biochemical
# Measurement context: 1 μM; read-out: RHUCX2 % Inh. at Dose
Here the recorded inhibition at 1 µM is given for each entry.
Don't forget the unit after the number, please.

# Molecule, Tested target, Result
rows = [
    ("CS(=O)(=O)c1ccc(-c2cnn(Cc3ccccc3C(F)(F)F)c(=O)c2-c2ccc(F)cc2)cc1", "recombinant human Cox-2 (r-hu Cox-2) (Homo sapiens)", "93%"),
    ("CC(C)CCOc1c(-c2ccc(S(C)(=O)=O)cc2)cnn(CC(F)(F)F)c1=O", "recombinant human Cox-2 (r-hu Cox-2) (Homo sapiens)", "90%"),
    ("CS(=O)(=O)c1ccc(-c2cnn(-c3ccc(F)c(F)c3)c(=O)c2Cc2ccc(F)cc2)cc1", "recombinant human Cox-2 (r-hu Cox-2) (Homo sapiens)", "74%"),
    ("CS(=O)(=O)c1ccc(-c2cnn(Cc3ccccc3)c(=O)c2-c2ccc(Cl)cc2)cc1", "recombinant human Cox-2 (r-hu Cox-2) (Homo sapiens)", "99%"),
    ("CS(=O)(=O)c1ccc(-c2cnn(CC(F)(F)F)c(=O)c2-c2ccc(Cl)c(Cl)c2)cc1", "recombinant human Cox-2 (r-hu Cox-2) (Homo sapiens)", "97%"),
    ("CC(c1cccc(F)c1)n1ncc(-c2ccc(S(N)(=O)=O)cc2)c(-c2ccc(F)cc2)c1=O (centres unmarked)", "recombinant human Cox-2 (r-hu Cox-2) (Homo sapiens)", "88%"),
    ("COc1c(F)cc(-c2c(-c3ccc(S(C)(=O)=O)cc3)cnn(CC(F)(F)F)c2=O)cc1F", "recombinant human Cox-2 (r-hu Cox-2) (Homo sapiens)", "96%"),
]

The reported inhibition at 1 µM value, recombinant human Cox-2 (r-hu Cox-2) (Homo sapiens), for CC(c1ccc(F)c(F)c1F)n1ncc(-c2ccc(S(N)(=O)=O)cc2)c(-c2ccc(F)cc2)c1=O (centres unmarked) reads 100%

----------
Measure name: melting point

# Compound, Result
measured = [
    ("CC(C)=CCCOc1c(-c2ccc(S(C)(=O)=O)cc2)cnn(-c2ccc(F)c(F)c2)c1=O", "88 to 90 °C"),
    ("CS(=O)(=O)c1ccc(-c2cnn(CC(F)(F)F)c(=O)c2N2CCCCC2)cc1", "160 to 161 °C"),
    ("CC(c1ccc(F)cc1)n1ncc(-c2ccc(S(C)(=O)=O)cc2)c(-c2ccc(F)cc2)c1=O (centres unmarked)", "162 to 164 °C"),
    ("C[C@H](O)CCOc1c(-c2ccc(S(C)(=O)=O)cc2)cnn(-c2ccc(F)c(F)c2)c1=O", "128 to 130 °C"),
    ("NS(=O)(=O)c1ccc(-c2cnn(CC(F)(F)F)c(=O)c2-c2ccc(Cl)cc2)cc1", "154 to 156 °C"),
    ("CS(=O)(=O)c1ccc(-c2cnn(Cc3cc4ccccc4s3)c(=O)c2-c2ccc(F)cc2)cc1", "93 to 96 °C"),
]

For reference, reported melting point for `CS(=O)(=O)c1ccc(-c2cnn(-c3ccc(F)c(Cl)c3)c(=O)c2Cc2cccc(F)c2)cc1` stands at 101 to 103 °C

For reference, reported melting point for `CC(C)COc1c(-c2ccc(S(N)(=O)=O)cc2)cnn(-c2ccc(F)cc2)c1=O` stands at 132 to 136 °C

----------
# Tested target: recombinant human Cox-1 (r-hu Cox1) (Homo sapiens, UniProt P23219)
# Construct: made in house; host or cells: baculovirus/Sf9 insect cells (microsomes)
# Sequence (P23219 24-599): as above
# Method: Recombinant human PGHS-1 enzyme assay (RHUCX1)
# Assay type: biochemical
# Measurement context: 10 μM
Measure name: RHUCX1 % Inh. at Dose (μM)

Take a look at these entries with their results.
# Compound smiles, RHUCX1 % Inh. at Dose (μM)
measured = [
    ("Cc1ccc(-c2c(-c3ccc(S(N)(=O)=O)cc3)cnn(-c3ccc(F)cc3)c2=O)cc1F", "57 @ 10%"),
    ("NS(=O)(=O)c1ccc(-c2cnn(-c3ccc(F)c(F)c3)c(=O)c2Oc2ccc(F)cc2)cc1", "74 @ 10%"),
    ("Cc1cc(-c2c(-c3ccc(S(N)(=O)=O)cc3)cnn(-c3ccc(F)cc3)c2=O)ccc1F", "88 @ 10%"),
]

Let us examine a further case.
The reported RHUCX1 % Inh. at Dose (μM) value, recombinant human Cox-1 (r-hu Cox1) (Homo sapiens, UniProt P23219), for `CS(=O)(=O)c1ccc(-c2cnn(-c3csc4ccccc34)c(=O)c2-c2ccc(F)cc2)cc1` reads 88 @ 10%

----------
# Tested target: Human Whole Platelet Cyclooxygenase-1 (Homo sapiens)
# Method: Human Whole Platelet Cyclooxygenase-1 assay (HWPX)
# Measurement context: read-out: HWPX IC50 (parenthetical value)
Measure name: pIC50
Scale for pIC50: -log10 of concentration given in mol/L; no unit attached.

Take a look at these entries with their results.
# Molecule, pIC50
records = [
    ("Cc1cc(-c2c(-c3ccc(S(C)(=O)=O)cc3)cnn(-c3ccc(F)c(Cl)c3)c2=O)ccc1F [Example 247]", 5.11),
    ("CC(C)CCOc1c(-c2ccc(S(C)(=O)=O)cc2)cnn(-c2ccc(F)cc2)c1=O [Example 375]", 5.69),
    ("CC(C)CCc1c(-c2ccc(S(C)(=O)=O)cc2)cnn(-c2cccc(Cl)c2)c1=O [Example 366]", 5.79),
    ("CS(=O)(=O)c1ccc(-c2cnn(-c3cccc(Cl)c3)c(=O)c2Oc2ccccc2)cc1 [Example 343]", 6.72),
    ("CS(=O)(=O)c1ccc(-c2cnn(-c3ccc(F)cc3)c(=O)c2C2CCCCC2)cc1 [Example 228]", 4.71),
]

For reference, reported pIC50 for CS(=O)(=O)c1ccc(-c2cnn(-c3cccc(Cl)c3)c(=O)c2OCC2CC2)cc1 [Example 418] stands at 4.85

For reference, reported pIC50 for CC(C)COc1c(-c2ccc(S(N)(=O)=O)cc2)cnn(-c2ccc(F)c(F)c2)c1=O [Example 403] stands at 6.04

For reference, reported pIC50 for CC(C)(C)COc1c(-c2ccc(S(N)(=O)=O)cc2)cnn(CC(F)(F)F)c1=O [Example 446] stands at 4.61
